Below, each of the binders is paired with its reported pKd value.
MEASUREMENT_TARGET: T1, monomeric human CSF1R ectodomain protein (human, UniProt P07333 20-517)
T1 construct: also called biotinylated monomeric human CSF1R
TEST: SPR Biacore, IgG captured, monomeric CSF1R analyte
pKd: −log10 of the molar value.

[
  {
    "BINDER": "MH24 (antibody, human IgG4, V domains shown, Deimmunized MH5 derivative, human IgG4(S228P)/Ckappa IgG) VH: QVQLVQSGAEVKKPGSSVKVSCKASGYTFSSHYMIWVRQAPGQGLEWMGDINPYNGGANYAQKFQGRVTITADESTSTAYMELSSLRSEDTAVYYCAREGPYFSNLYVMDYWGQGTLVTVSS VL: EIVLTQSPATLSLSPGERATLSCRASQSVSYEGENYLNWYQQKPGQAPRSLIYAASDRATGIPARFSGSGSGTDFTLTISSPEPEDFAVYYCQLSNEDLLTFGGGTKVEIK",
    "pKd": 9.40
  },
  {
    "BINDER": "MH5 (antibody, human IgG4, V domains shown, Designer (maximally humanized) clone; tested as human IgG4(S228P)/Ckappa IgG; also called mAb-2) VH: QVQLVQSGAEVKKPGSSVKVSCKASGYTFSSYYMIWVRQAPGQGLEWMGDINPYNGGANYAQKFQGRVTITADESTSTAYMELSSLRSEDTAVYYCAREGPYFSNLYVMDYWGQGTLVTVSS VL: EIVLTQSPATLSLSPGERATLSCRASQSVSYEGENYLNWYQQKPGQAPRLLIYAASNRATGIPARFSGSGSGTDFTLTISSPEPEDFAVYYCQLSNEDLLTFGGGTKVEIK",
    "pKd": 9.66
  },
  {
    "BINDER": "MH41 (antibody, human IgG4, V domains shown, Deimmunized MH5 derivative, human IgG4(S228P)/Ckappa IgG; also called MN41) VH: QVQLVQSGAEVKKPGSSVKVSCKASGYTFSSHYMIWVRQAPGQGLEWMGDINPYNGGANYAQKFQGRVTITADESTSTAYMELSSLRSEDTAVYYCAREGPYFSNLYVMDYWGRGTLVTVSS VL: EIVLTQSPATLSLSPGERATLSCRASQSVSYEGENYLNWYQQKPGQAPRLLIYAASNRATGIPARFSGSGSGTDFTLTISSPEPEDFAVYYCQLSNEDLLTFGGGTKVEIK",
    "pKd": 9.07
  },
  {
    "BINDER": "MH16 (antibody, human IgG4, V domains shown, Deimmunized MH5 derivative, human IgG4(S228P)/Ckappa IgG; also called mAb-5) VH: QVQLVQSGAEVKKPGSSVKVSCKASGYTFSSAYMIWVRQAPGQGLEWMGDINPYNGGANYAQKFQGRVTITADESTSTAYMELSSLRSEDTAVYYCAREGPYFSNLYVMDYWGQGTLVTVSS VL: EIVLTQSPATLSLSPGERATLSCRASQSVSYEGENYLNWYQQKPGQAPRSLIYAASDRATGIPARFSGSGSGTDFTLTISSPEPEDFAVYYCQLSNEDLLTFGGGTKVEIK",
    "pKd": 9.35
  }
]

Where do the numbers come from? From patent US20210301026A1.
